system-tested: Grb2 SH2 (UniProt P62993)
Sequence (P62993 whole entry, looked up, the tested form may be a part): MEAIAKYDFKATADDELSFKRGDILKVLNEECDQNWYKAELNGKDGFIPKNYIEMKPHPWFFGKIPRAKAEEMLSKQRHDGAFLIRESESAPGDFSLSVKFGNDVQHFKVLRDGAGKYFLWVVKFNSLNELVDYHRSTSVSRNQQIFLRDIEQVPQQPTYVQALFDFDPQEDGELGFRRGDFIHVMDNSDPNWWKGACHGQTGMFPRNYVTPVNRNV
assay-remarks: SH2 binding enrichment of the phosphorylated peptide, bacterial display (enrichment ratio); higher = better substrate or ligand; peptides without Tyr show the background;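 further: peptide library displayed on the E. coli surface as eCPX fusions, selected cells deep-sequenced, score is each peptide's frequency after selection divided by its frequency in the input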
So basically every entry gets a class from its SH2 binding enrichment, ranges being bin 1: < 0.8; bin 2: ≥ 0.8 and < 1; bin 3: ≥ 1

• KWRGQYDVAIR [BTK_Y425_K430R] = bin 3
• LSPNMYNSKFW [TARSL2_Y457_L461F] = bin 2
• EYKDAYKFAAD [BRDT_Y335] = bin 2
• AERKLYSGAQT [ZAP70_Y178] = bin 2
• SRPHLYGTPSR [ADGRE2_Y670] = bin 3
• VGTKRYMAPKV [ACVRL1_Y375_E379K] = bin 3
• KHMADYPDFKF [SOX11_Y113_YF] = bin 1
• LFEDCYLLGTS [ASS1_Y87_R86C_YF] = bin 3
• LLVVLCKFRCF [PSEN1_Y154_Y154C_YF] = bin 3
• QSSEGYDLGDR [KIAA1210_Y564_G565D] = bin 3
• RLEGVYGNNID [PTEN_Y46_R47G] = bin 1
• GTFVIYVRFGG [FLNB_Y1687_YF] = bin 3
• TMKSHYMELYD [BBS2_Y644_R643H] = bin 3
• KGEDFYSVTCH [FHL1_Y149_C150S] = bin 1
• SISFDYCRVPM [BST2_Y8_T4I_YF] = bin 1
• NFFDTCIKTCL [IQGAP2_Y1445_Y1445C_YF] = bin 3
• RAQIRYAQEHD [NSD1_Y1987_R1984Q] = bin 3
• FEEVVYQAMEE [TACC3_Y684] = bin 1
• QEALEYFMKQM [PIK3CA_Y1038] = bin 1
• GEDDVYDSVPG [FGR_opt_2018] = bin 2
• QMVGMYASSFM [AVPR2_Y124_YF] = bin 1
• NNTFLYQLVFD [EXO1_Y284] = bin 3
• DYYDLYGGKKF [PTPN11_Y66_E69K] = bin 1
• MCITRYERESQ [PRNP_Y218_Q217R] = bin 3
• SAAAIYMVRHP [PMP22_Y117_T118M] = bin 2
• EQKRYYNAMKK [SCN5A_Y1495_K1493R] = bin 3
• ATPKGYELDAS [OTC_Y223_P225L] = bin 2
• SHNKYYMLVAR [MFSD8_Y134] = bin 3
• LKDEDYLKDIV [HAUS3_Y582] = bin 2
• GNHVSYFQSDG [CACNA1C_Y1757_YF] = bin 2
• SARFRYLLAEK [LDHB_Y173_M175L] = bin 1
• QCQLKYSETPF [SIX6OS1_Y129_Y125C] = bin 2
• PADSGYPAYLG [ATP6V1A_Y374] = bin 3
• LGNFNYEQRGA [API5_Y497] = bin 2
• PEPTGYSAELS [EZR_Y499_A494P] = bin 2
• REEKNYKHKET [BCLAF1_Y459_L461H] = bin 2
• SGASGYSATST [CERT1_Y143] = bin 1
• LFNQDYPIHCV [GATM_Y227_S231C_YF] = bin 1
• YDDGKYVYVVT [RPS6KA3_Y488] = bin 2
• PPPPAYDDVAQ [TNK2_Y635] = bin 1
• FSQETYYRVSN [ABCD1_Y180_Q178E] = bin 2
• HNQDGYSFPSR [LDLR_Y845_YF] = bin 3
• TSSAGYRRTPS [ABI1_Y333_G331A] = bin 3
